B1: glmS ribozyme (parent)
chain: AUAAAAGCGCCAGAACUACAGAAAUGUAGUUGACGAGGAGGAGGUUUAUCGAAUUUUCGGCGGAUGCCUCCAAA

Variants of: B1
Assay: self-cleavage kobs at 40 uM GlcN6P; higher = faster cleavage; RNA array
Settings: with glucosamine-6-phosphate
Variants at the floor of the assay were thinned out.
RECORDED METRIC: self-cleavage kobs at 40 uM GlcN6P

Consider the reported self-cleavage kobs at 40 uM GlcN6P for these variants:
>>> recorded_result("AUAAAAGCGCCAGAACUACAGAAAUGUAGUUGACGAGGAAGAGGUUUAUCGAAUUUUCGGCUGAUGCCUCCAAA [G40A G62U]")
"< 1e-05 s⁻¹"
>>> recorded_result("AUAAAAGCGCCAGAACUACAGAAAUGUAGUUGACGAGGAGGAGGUUUAUAGAAUUUUCCGCGGAUGCCUCCAAA [C50A G59C]")
"< 1e-05 s⁻¹"
>>> recorded_result("AUAAAAGCGCCAGAACUACAGAAAUGUAGUGGACGAGGAGGAGGUUUAUCGAAUUUUCGCCGGAUGCAUCCAAA [U31G G60C C68A]")
"< 1e-05 s⁻¹"
>>> recorded_result("AUAAAAGCGCCAGAACUACAGAAAUGUAGUUGACCAGGAGGAGGUUUUUCGAAUUUUCGGCGGAUGCCUCCAAA [G35C A48U]")
"< 1e-05 s⁻¹"
>>> recorded_result("AUAAAAGCACCAGCACUACAGAAAUGUAGUUGACGAGGAGGAGUUUCAUCGAAUUUUCGGCGGAUGCCUCCAAA [G9A A14C G44U U47C]")
"< 1e-05 s⁻¹"
>>> recorded_result("AUAAAAGCGCGAGAACUACAGAAAUGUAGUUGACGAGGAGGAGGUUUAUCGAAUUUUCGGCGGAUACCUCCAAA [C11G G66A]")
"< 1e-05 s⁻¹"
>>> recorded_result("AUAAAAGCGCCAGAACUACAGAAAUGUAGUUGACGAGGAGGAGUCUUAUCGAAUUUUCGGCGGAUGCCUCCAAA [G44U U45C]")
"< 1e-05 s⁻¹"
>>> recorded_result("AUAAAAGCGCCAGAACUACAGAAAUGUAAUUGCCGAGGAGGAGGUUUAUCGAAUUUUCGGCGGAUGCCUCCAAA [G29A A33C]")
"< 1e-05 s⁻¹"
>>> recorded_result("AUAAAAGCGCCAGAACUACAGAAAUGUAGUUGCCGAGGAGGAGGUUUAUCGAAUUUUCGGCGGCUGCCUCCAAA [A33C A64C]")
"< 1e-05 s⁻¹"
>>> recorded_result("AUAAAAGCGCCAGAACUACAGAAAUGUAGUUGAAGACGAGGAGGUUUAUCGAAUUUUCGUCGGAUGCCUCCAAA [C34A G37C G60U]")
"< 1e-05 s⁻¹"

// self-cleavage kobs at 40 uM GlcN6P lookup, variant = AUAAAUUCGCCAGAAGUACAGAAAUGUAGUUGAAGAGGAGGAGGUUUAUCGAAUUUUCGGCGGAUGCCUCCAAA [A6U G7U C16G C34A] , result: < 1e-05 s⁻¹

// self-cleavage kobs at 40 uM GlcN6P lookup, variant = AUAAAAGCGCCAGAACUACAGAAAUGUAGUUCACGAGGAGGAGGGUUAUCGAAUUUUCGGCGGAUGCCUCCAAA [G32C U45G] , result: < 1e-05 s⁻¹

// self-cleavage kobs at 40 uM GlcN6P lookup, variant = AUAAAAGCGCCGGAACUACAGAAAUGUAGUUGACCAGGAGGAGGUUUAUCGAAUUUUCGACGGAGGCGUCCAAA [A12G G35C G60A U65G C68G] , result: 0.000127 s⁻¹

// self-cleavage kobs at 40 uM GlcN6P lookup, variant = AUAAAAGCGCCAGAGCUACAGAAAUGUAGUUGACGAGCAGGAGGUUUAUCGAAUUUUCGGCGGAUGCCUCCAAA [A15G G38C] , result: < 1e-05 s⁻¹

Sourced from the supplement of paper PMC7125110
